biological target: T1, rHuman CD44/Fc Chimera, CF (R&D Systems Cat#3660-CD) (human, UniProt P16070 21-220); assay: ECL multispot (MSD) binding assay, antigen spotted on plate, Fab 0.04 uM;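 further: purified Fab incubated 1 h at 20 °C on antigen spots, detected via TAG-labelled antibody, ECL read against each well's blank, with signal-to-blank of at least 4 scored as binder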
T1 construct: Bought recombinant protein; Fc part of the bought chimera not given

{"BINDER": "Fab VH5-51_IGHD5-18*01>3_IGHJ4*01 G100K/G104T (H:KT) & V3-4_IGLJ1*01 I98A (Fab, V domains shown, Fab; Expressed from Plasmid A (CH1, His6 and Flag tags) and Plasmid E (lambda CL); also called KT & I98A) VH: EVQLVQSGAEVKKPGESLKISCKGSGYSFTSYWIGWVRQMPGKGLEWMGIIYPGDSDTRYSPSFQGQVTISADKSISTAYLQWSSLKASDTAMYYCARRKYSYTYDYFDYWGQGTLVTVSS VL: QTVVTQEPSFSVSPGGTVTLTCGLSSGSVSTSYYPSWYQQTPGQAPRTLIYSTNTRSSGVPDRFSGSILGNKAALTITGAQADDESDYYCVLYMGSGASYVFGTGTKVTVL", "ECL signal": 708}
{"BINDER": "Fab VH5-51_IGHD5-18*01>3_IGHJ4*01 G100K/G104T (H:KT) & V3-4_IGLJ1*01 G95A (Fab, V domains shown, Fab; Expressed from Plasmid A (CH1, His6 and Flag tags) and Plasmid E (lambda CL); also called KT & G95A) VH: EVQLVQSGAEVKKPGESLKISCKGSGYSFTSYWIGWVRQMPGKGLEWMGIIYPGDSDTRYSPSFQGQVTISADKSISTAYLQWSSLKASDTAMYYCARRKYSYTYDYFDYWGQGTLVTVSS VL: QTVVTQEPSFSVSPGGTVTLTCGLSSGSVSTSYYPSWYQQTPGQAPRTLIYSTNTRSSGVPDRFSGSILGNKAALTITGAQADDESDYYCVLYMASGISYVFGTGTKVTVL", "ECL signal": 657}
{"BINDER": "Fab VH5-51_IGHD5-18*01>3_IGHJ4*01 G100K/G104T (H:KT) & V3-4_IGLJ1*01 M94A (Fab, V domains shown, Fab; Expressed from Plasmid A (CH1, His6 and Flag tags) and Plasmid E (lambda CL); also called KT & M94A) VH: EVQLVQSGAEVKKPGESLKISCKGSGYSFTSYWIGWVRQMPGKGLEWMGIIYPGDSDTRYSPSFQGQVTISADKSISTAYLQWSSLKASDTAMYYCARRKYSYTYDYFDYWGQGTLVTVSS VL: QTVVTQEPSFSVSPGGTVTLTCGLSSGSVSTSYYPSWYQQTPGQAPRTLIYSTNTRSSGVPDRFSGSILGNKAALTITGAQADDESDYYCVLYAGSGISYVFGTGTKVTVL", "ECL signal": 633}
